# target-entity: Neutrophil elastase (Homo sapiens, UniProt P08246)
# Sequence (P08246 whole entry): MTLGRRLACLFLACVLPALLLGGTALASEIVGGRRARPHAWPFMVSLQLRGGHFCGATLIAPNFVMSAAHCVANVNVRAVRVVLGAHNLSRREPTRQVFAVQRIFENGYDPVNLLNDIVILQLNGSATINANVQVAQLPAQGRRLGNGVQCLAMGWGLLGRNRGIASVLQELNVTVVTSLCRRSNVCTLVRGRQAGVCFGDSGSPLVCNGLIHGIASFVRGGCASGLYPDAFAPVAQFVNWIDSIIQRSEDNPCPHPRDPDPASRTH
# assay-protocol: Binding affinity for human leukocyte elastase (HLE); Kreact/Kinact
pKi: −log10 of the molar value.
Consider the following molecules; for each one, report its pKi.

Form field: reported pKi of "CO[C@H]1C(=O)N2C(C(=O)N3CCC[C@H]3C(=O)O)=C(COC(C)=O)CS(=O)(=O)[C@H]12" 8.66

Would you kindly share the measured pKi for "CC(C)c1cccc2c1C(=O)N(COc1cccc(C(=O)NCCN3CCOCC3)c1)S2(=O)=O" ? < 7.00

Fill in: pKi of "CC(C)c1cccc2c1C(=O)N(COc1c(Cl)cccc1Cl)S2(=O)=O" is ___ < 7.00

Using the record for "CC(C)c1cccc2c1C(=O)N(COc1cccc(C(=O)OCCN3CCOCC3)c1)S2(=O)=O" , report its pKi. < 6.00
